Tested on: Poly (dA-dT)
PROTOCOL: DNA Binding ΔTm, Poly (dA-dT)
# note: boundary value 10 °C maps to FALSE; DNA Binding ΔTm Poly (dA-dT) below it maps to TRUE

>  <MOLECULE>
CCCCCCCCCNC(=N)c1ccc(N2CCN(c3ccc(C(=N)NCCCCCCCCC)cc3)CC2)cc1

>  <TESTED_SYSTEM>
Poly (dA-dT)

>  <CATEGORY_LABEL>
TRUE

$$$$
>  <MOLECULE>
CCCCCNC(=N)c1ccc(N2CCN(c3ccc(C(=N)NCCCCC)cc3)CC2)cc1

>  <TESTED_SYSTEM>
Poly (dA-dT)

>  <CATEGORY_LABEL>
FALSE

$$$$
>  <MOLECULE>
N=C(N)c1ccc(OCCCCCOc2ccc(C(=N)N)cc2)cc1 [Pentamidine, reference compound]

>  <TESTED_SYSTEM>
Poly (dA-dT)

>  <CATEGORY_LABEL>
FALSE

$$$$
>  <MOLECULE>
CCCCCCCCCCCCNC(=N)c1ccc(N2CCN(c3ccc(C(=N)NCCCCCCCCCCCC)cc3)CC2)cc1

>  <TESTED_SYSTEM>
Poly (dA-dT)

>  <CATEGORY_LABEL>
TRUE

$$$$
>  <MOLECULE>
CCCCCCCNC(=N)c1ccc(N2CCN(c3ccc(C(=N)NCCCCCCC)cc3)CC2)cc1

>  <TESTED_SYSTEM>
Poly (dA-dT)

>  <CATEGORY_LABEL>
TRUE

$$$$

Attention now shifts to the item below.
Prompt: Quick check: DNA Binding ΔTm Poly (dA-dT) of CCNC(=N)c1ccc(N2CCN(c3ccc(C(=N)NCC)cc3)CC2)cc1 under 10 °C?
Response: FALSE
